Each recorded value in this set is attributed to patent US11285156B2.

assayed_target: GDP-bound KRAS protein (aa 1-169), containing both G12C and C118A amino acid substitutions (Homo sapiens (Human), UniProt P01116, C118A/G12C)
Sequence (P01116 other isoform, or with tags, fused parts or gaps G12C/C118A): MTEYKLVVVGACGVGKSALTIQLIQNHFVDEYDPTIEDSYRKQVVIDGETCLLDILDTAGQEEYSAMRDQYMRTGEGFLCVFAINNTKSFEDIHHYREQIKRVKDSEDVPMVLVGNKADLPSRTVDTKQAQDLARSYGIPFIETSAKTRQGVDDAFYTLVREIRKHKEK
experiment_notes: Coupled nucleotide exchange assay (SOS-mediated nucleotide exchange, AlphaScreen)
Format: biochemical
condition: read-out: Coupled exchange IC50 (5 min; μM); 5 min compound pre-incubation
The following compounds are shown together with reported log10(IC50) values.
The figures below represent log10 of IC50, where IC50 is stated in µM.

1) C=CC(=O)N1C[C@H](C)N(c2nc(=O)n(-c3c(C)ccnc3C(C)C)c3nc(-c4cc(C#CC)ccc4F)c(Cl)cc23)C[C@H]1C (atropisomer, axis not shown; (M))	-1.49
2) C=CC(=O)N1C[C@H](C)N(c2nc(=O)n(-c3c(N(C)C)ccnc3C(C)C)c3nc(-c4c(F)cccc4NC(=O)CC)c(Cl)cc23)C[C@H]1C (single isomer, unassigned) [Example 122-2-2]	-1.06

Entry under test: C=CC(=O)N1C[C@H](C)N(c2nc(=O)n(-c3c(N(CC)CC)ccnc3C(C)C)c3nc(-c4ccccc4C(C)C)c(Cl)cc23)C[C@H]1C [Example 103-5] . Its log10(IC50) was -0.70

// log10(IC50) value for C=CC(=O)N1C[C@H](C)N(c2nc(=O)n(-c3c(N(C)C)ccnc3C(C)C)c3nc(-c4ccccc4C(C)C)c(Cl)cc23)C[C@H]1C (single isomer, unassigned) [Example 103-1-1] : 0.10

Field log10(IC50) (entry C=CC(=O)N1CCN(c2nc(=O)n(CC(C)(C)C)c3nc(-c4ccccc4F)c(Cl)cc23)C[C@@H]1CO ) reads 0.92

log10(IC50) measured on C=CC(=O)N1C[C@H](C)N(c2nc(=O)n(-c3c(C)ccnc3C(C)C)c3nc(C4CC4(C)C)c(Cl)cc23)C[C@H]1C (stereo partly drawn) = -0.52

###

Entries and their log10(IC50) values follow.
assayed_target: GDP-bound KRAS protein (aa 1-169), containing both G12C and C118A amino acid substitutions (Homo sapiens (Human), UniProt P01116, C118A/G12C)
experiment_notes: Coupled nucleotide exchange assay (SOS-mediated nucleotide exchange, AlphaScreen)
Type: biochemical
condition: read-out: Coupled exchange IC50 (5 min; μM); 5 min compound pre-incubation
Give log10 of IC50, with IC50 taken in µM.

Examples with their reported log10(IC50) follow.
1. C=CC(=O)N1C[C@H](C)N(c2nc(=O)n(-c3c(N(C)C)ccnc3C(C)C)c3nc(-c4ccccc4C(C)C)c(Cl)cc23)C[C@H]1C [Example 103-1]	-0.98
2. C=CC(=O)N1[C@@H]2CC[C@H]1CN(c1nc(=O)n(-c3c(C)ccnc3C(C)C)c3nc(-c4ccccc4F)c(Cl)cc13)C2 (atropisomer, axis not shown; (M))	0.44
3. C=CC(=O)N1C[C@H](C)N(c2nc(=O)n(-c3c(C)cc([S+](C)[O-])cc3C(C)C)c3nc(-c4ccccc4F)c(Cl)cc23)C[C@@H]1C (some centres unmarked)	0.30
4. C=CC(=O)N1C[C@H](C)N(c2nc(=O)n(-c3c(N)ncnc3C(C)C)c3nc(-c4ccccc4F)c(Cl)cc23)C[C@H]1C	-0.80
5. C=CC(=O)N1C[C@H](C)N(c2nc(=O)n(-c3c(C)ccnc3C(C)C)c3nc(-c4ccccc4C(C)C)c(Cl)cc23)C[C@H]1C (atropisomer, axis not shown; (M))	-1.80
6. C=CC(=O)N1C[C@H](C)N(c2nc(=O)n(-c3c(N(C)C)ccnc3C(C)C)c3nc(-c4ccccc4C)c(Cl)cc23)C[C@H]1C [Example 103-7]	-0.84
7. C=CC(=O)N1C[C@H](C)N(c2nc(=O)n(-c3c(CN4CC(F)(F)C4)cccc3C(C)C)c3nc(-c4ccccc4F)c(Cl)cc23)C[C@H]1C	-1.11
8. C=CC(=O)N1C[C@H](C)N(c2nc(=O)n(-c3c(C(C)C)nc(C)nc3C(C)C)c3nc(-c4ccccc4F)c(Cl)cc23)C[C@H]1C	-1.28
9. C=CC(=O)N1C[C@H](C)N(c2nc(=O)n(-c3c(C)ccnc3C(C)C)c3nc(-c4c(F)cccc4Cl)c(F)cc23)C[C@H]1C (atropisomer, axis not shown; (M))	-0.74
10. C=CC(=O)N1C[C@H](C)N(c2nc(=O)n(-c3c(N(C)C)ccnc3C(C)C)c3nc(-c4c(F)cccc4NC(=O)C4CC4)c(Cl)cc23)C[C@H]1C (single isomer, unassigned) [Example 122-3-1]	0.83

For the next question, use this compound.
Entry C=CC(=O)N1C[C@H](C)N(c2nc(=O)n(-c3c(C)cc(CN(C)C)cc3C(C)C)c3nc(-c4ccccc4F)c(F)cc23)C[C@H]1C (single isomer, unassigned) [Example 80-20-2] — recorded log10(IC50) = -0.43
